- Tested on: TK-10 renal
- test-protocol: NCI tumour cell line growth inhibition, 48 h
The following compounds are shown together with reported TGI values.
Use µM as the unit, but write only the number.

Answered examples (2):
# smiles-code, uom, TGI
measured = [
    ("ClC1=C(Cl)C(Cl)=C(Cl)C1=C/C=C/c1ccccc1", "µM", 2.04),
    ("CC(C)NC(=O)CN1CCN(C2=CC(=O)c3c(O)ccc(O)c3C2=O)CC1", "µM", 31.5),
]

**Q:** Return TGI for the following compound: CCCCCCCC/C=C/CCCCCCCCC1=NCCN1CCO
**A:** 26.7

**Q:** Return TGI for the following compound: NC(=NCCCOc1ccc(Cl)cc1)Nc1ccc(Cl)cc1
**A:** 3.89

**Q:** Return TGI for the following compound: CCC[CH2][Sn]([CH2]CCC)([O]C(=O)c1cc(F)cc(F)c1)[O]C(=O)c1cc(F)cc(F)c1
**A:** 2.61

----------
- System: DU-145 prostate
- test-protocol: NCI tumour cell line growth inhibition, 48 h
experimental-endpoint: GI50

# molecule, result
rows = [
    ("CC(=O)c1ccc(NC(=O)CSc2nnc(-c3cc(-c4ccc(C)cc4)nc4ccccc34)o2)cc1", "4.52 µM"),
    ("CN1CCCNc2c(c(=O)c2=O)NCCCN(C)CCCNc2c(c(=O)c2=O)NCCCN(C)CCCNc2c(c(=O)c2=O)NCCCN(C)CCCNc2c(c(=O)c2=O)NCCCN(C)CCCNc2c(c(=O)c2=O)NCCCN(C)CCCNc2c(c(=O)c2=O)NCCCN(C)CCCNc2c(c(=O)c2=O)NCCC1", "1.68 µM"),
]

**Q:** Return GI50 for the following molecule: COc1cccc(C2C(C#N)=C(N)Oc3cc(N)ccc32)c1 (stereo not drawn)
**A:** 0.71 µM

----------
- Tested on: SK-MEL-5 melanoma
- test-protocol: NCI tumour cell line growth inhibition, 48 h
experimental-endpoint: TGI

Answered examples (3):
# molecule, result
rows = [
    ("Cc1c(CCOC=O)c(=O)[nH]c2nncn12", "> 100 µM"),
    ("O=c1cc(N2CCOCC2)[nH]c(=O)n1-c1cccc(C(F)(F)F)c1", "> 100 µM"),
    ("CC1CC[C@@]2(OC1)OC1C[C@H]3[C@@H]4C/C(=N\\N(C)C)[C@@]5(O)CC(O)CC[C@]5(C)[C@H]4CC[C@]3(C)C1[C@@H]2C (stereo partly specified)", "> 100 µM"),
]

**Q:** Return TGI for the following molecule: CC1=C2c3c(C)ccc4ccc(C)c(c34)C2(O)C(C)C1=O (stereo unspecified)
**A:** > 100 µM

**Q:** Return TGI for the following molecule: CC(=O)Nc1ccc(Sc2ccc([N+](=O)[O-])o2)cc1
**A:** 11.4 µM

**Q:** Return TGI for the following molecule: COc1cc(-c2oc3c(OC)c(O)c(OC)c(O)c3c(=O)c2OC)cc(O)c1OC
**A:** 55.6 µM

**Q:** Return TGI for the following molecule: O=C1/C(=C\c2cccc(Oc3ccccc3)c2)S(=O)(=O)C(c2ccccc2)N1c1ccc(Cl)cc1 (stereo unspecified)
**A:** 30.5 µM

**Q:** Return TGI for the following molecule: N#Cc1c(-c2ccc(Cl)cc2)n(O)c2ccccc12
**A:** 2.06 µM

**Q:** Return TGI for the following molecule: Clc1ccc(Oc2ccc(N=Cc3ccc(Cl)cc3Cl)cc2Cl)cc1
**A:** > 100 µM

**Q:** Return TGI for the following molecule: CON(C)C(C#N)=C(C#N)C#N
**A:** > 10 µM

**Q:** Return TGI for the following molecule: OC12COc3ccccc3C1Oc1ccccc1C2 (stereo unspecified)
**A:** > 100 µM
